Target: AGAP002992-PA (Anopheles gambiae, UniProt Q5TU56)
Sequence (Q5TU56 whole entry): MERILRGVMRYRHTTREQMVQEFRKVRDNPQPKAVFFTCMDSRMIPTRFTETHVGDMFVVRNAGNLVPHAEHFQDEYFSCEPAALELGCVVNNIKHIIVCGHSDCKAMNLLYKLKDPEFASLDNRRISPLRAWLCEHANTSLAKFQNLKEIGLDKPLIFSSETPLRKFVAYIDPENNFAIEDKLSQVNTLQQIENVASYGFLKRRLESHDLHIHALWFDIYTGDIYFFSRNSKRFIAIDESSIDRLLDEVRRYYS
Classes (Ki): bottom bin (below 200 nM), middle bin (200 nM to below 900 nM), top bin (900 nM or more)

Input: Class (by measured Ki) for Nc1cc(Cl)c(S(N)(=O)=O)cc1S(N)(=O)=O
Output: middle bin

Input: Bin? CC1(C)O[C@@H]2[C@@H](CO[C@@]3(COS(N)(=O)=O)OC(C)(C)O[C@@H]23)O1 [TOPIRAMATE]
Output: top bin

Input: Class (by measured Ki) for Nc1ccc(S(N)(=O)=O)cc1Cl
Output: top bin

Input: For the record NS(=O)(=O)c1nnc(NS(=O)(=O)c2ccccc2)s1 [BENZOLAMIDE] , report the class its Ki corresponds to.
Output: bottom bin

Input: Textbook exercise: identify the category of the molecule given here, NCc1ccc(S(N)(=O)=O)cc1 [MAFENIDE] , according to its measured value.
Output: top bin

Input: Form field 'band' for Nc1nnc(S(N)(=O)=O)s1
Output: middle bin

Input: Hi, small favor: classify Nc1ccc(S(=O)(=O)Nc2nnc(S(N)(=O)=O)s2)cc1 by its Ki when you get a moment.
Output: bottom bin

Input: Tag the class for Cc1ccc(-c2cc(C(F)(F)F)nn2-c2ccc(S(N)(=O)=O)cc2)cc1
Output: bottom bin

Input: Sort into band: Nc1ccc(S(N)(=O)=O)cc1Br
Output: middle bin

Input: Which bin should I file NS(=O)(=O)c1ccc(O)cc1 under?
Output: top bin

Input: Classify this molecule: Nc1ccc(S(N)(=O)=O)cc1 [SULFANILAMIDE]
Output: middle bin

Input: Exam item: assign CCOc1ccc2nc(S(N)(=O)=O)sc2c1 [ETHOXZOLAMIDE] to the correct category.
Output: bottom bin

Input: Note: place this molecule into its band. Item: Nc1nccc(Nc2ccc(S(N)(=O)=O)cc2)n1
Output: top bin

Input: Kindly state the category for this molecule: CCN[C@H]1CN(CCCOC)S(=O)(=O)c2sc(S(N)(=O)=O)cc21 [BRINZOLAMIDE]
Output: bottom bin

Input: Place this molecule in its band: NS(=O)(=O)c1ccc(S(=O)(=O)Nc2cccc3c(Cl)c[nH]c23)cc1
Output: middle bin

Input: Which of the defined bands does the recorded Ki of NS(=O)(=O)c1cc(Cl)cc(Cl)c1O sit within?
Output: top bin

Input: Given Nc1ccc(S(=O)(=O)NCc2ccc(S(N)(=O)=O)cc2)cc1 , name the class its Ki places it in.
Output: bottom bin

Input: Determine which band this molecule sits in: Nc1cc(C(F)(F)F)c(S(N)(=O)=O)cc1S(N)(=O)=O
Output: top bin

Input: Place this molecule in its band: Cc1ccc(S(N)(=O)=O)cc1 [P-TOLUENESULFONAMIDE]
Output: top bin

Input: Determine which band this molecule sits in: NCCc1ccc(S(N)(=O)=O)cc1
Output: middle bin

Input: Kindly state the category for this molecule: NS(=O)(=O)c1ccc(CO)cc1
Output: top bin
